WPS (weight percent solubility in toluene) overview
Test: solubility of the reactive azo compounds in toluene (weight percent solubility)
Type: physicochemical
Details: heated to boil, cooled to room temperature, filtered (0.45 μm), dry residue mass / filtrate mass
Number in weight percent, nothing else.

C=C(C)C(=O)OCCn1c(O)c(/N=N/c2ccccc2C(=O)OCC(C)C)c(C)c(C#N)c1=O	18.6
C=C(C)C(=O)OCCn1c(O)c(/N=N/c2ccccc2C(=O)OC)c(C)c(C#N)c1=O	11.1
C=C(C)c1cccc(C(C)(C)NC(=O)OCCn2c(O)c(/N=N/c3ccc(C(=O)OC)cc3)c(C)c(C#N)c2=O)c1	8.8

IN: Provide one value: measured WPS (weight percent solubility in toluene) of `C=C(C)C(=O)OCCn1c(O)c(/N=N/c2ccccc2C(=O)OCCOCC)c(C)c(C#N)c1=O`
OUT: 35.5

IN: Provide one value: measured WPS (weight percent solubility in toluene) of C=C(C)C(=O)OCCn1c(O)c(/N=N/c2ccccc2C(=O)OCC(CC)CCCC)c(C)c(C#N)c1=O (stereo not shown)
OUT: 33.3

IN: Provide one value: measured WPS (weight percent solubility in toluene) of C=C(C)c1cccc(C(C)(C)NC(=O)OCCn2c(O)c(/N=N/c3ccccc3C(=O)OCC(CC)CCCC)c(C)c(C#N)c2=O)c1 (stereo not shown)
OUT: 37.5

IN: Provide one value: measured WPS (weight percent solubility in toluene) of `C=C(C)c1cccc(C(C)(C)NC(=O)OCCn2c(O)c(/N=N/c3ccccc3C(=O)OC)c(C)c(C#N)c2=O)c1`
OUT: 2.3
